Tested on: hLiMTs
Test method notes: Combined HCI (HCS) and cellular ATP 3D assay in hLiMTs
Experimental setup: hLiMTs; ATP endpoint; cut-off <25x Avg Cmax
Endpoint name: hLiMTs <25x Avg Cmax ATP

The following molecules have reported results that may help.
{"columns": ["Molecule", "hLiMTs <25x Avg Cmax ATP"],
 "data": [
  ["C1CCC(C(CC2CCCCN2)C2CCCCC2)CC1 (stereo not shown) [perhexiline]", "+ve"],
  ["CCOC(=O)CN[C@@H](C(=O)N1CC[C@H]1C(=O)NCc1ccc(/C(N)=N\\O)cc1)C1CCCCC1 [ximelagatran]", "-ve"],
  ["CN(C)C(=O)Oc1cccc([N+](C)(C)C)c1 [neostigmine]", "-ve"],
  ["CCCC(CCC)C(=O)O [valproic acid]", "+ve"]
]}

Retrieve hLiMTs <25x Avg Cmax ATP measured for N[C@@H]1[C@H]2CN(c3nc4c(cc3F)c(=O)c(C(=O)O)cn4-c3ccc(F)cc3F)C[C@@H]12 [trovafloxacin] and print it.
+ve

For the molecule CN(C)CCCN1c2ccccc2Sc2ccc(Cl)cc21 [chlorpromazine, reference compound] , give its reported hLiMTs <25x Avg Cmax ATP.
+ve

Tell me its hLiMTs <25x Avg Cmax ATP given CC(=O)Nc1ccc(O)cc1 [acetaminophen] as the entry.
+ve

Please indicate hLiMTs <25x Avg Cmax ATP recorded for CN(C)C(=N)N=C(N)N [metformin]
-ve

Report hLiMTs <25x Avg Cmax ATP for CCN(CC)CCNC(=O)c1c(C)[nH]c(/C=C2\C(=O)Nc3ccc(F)cc32)c1C [sunitinib]
+ve

Provide measured hLiMTs <25x Avg Cmax ATP value, entry: O=C1CC2(CCCC2)CC(=O)N1CCCCN1CCN(c2ncccn2)CC1 [buspirone, reference compound]
-ve

* * *

Tested on: hLiMTs
Test method notes: Combined HCI (HCS) and cellular ATP 3D assay in hLiMTs
Experimental setup: hLiMTs; ATP endpoint; cut-off <100x Avg Cmaxu
Endpoint name: hLiMTs <100x Avg Cmaxu ATP

{"columns": ["Smiles entry", "Assay target", "Measurement"],
 "data": [
  ["COc1ccccc1Oc1c(NS(=O)(=O)c2ccc(C(C)(C)C)cc2)nc(-c2ncccn2)nc1OCCO", "hLiMTs", "-ve"],
  ["O=c1[nH]c(=O)n([C@@H]2O[C@H](CO)[C@@H](O)[C@@H]2F)cc1I", "hLiMTs", "+ve (<100x Avg Cmaxu)"],
  ["N[C@@H]1[C@H]2CN(c3nc4c(cc3F)c(=O)c(C(=O)O)cn4-c3ccc(F)cc3F)C[C@@H]12", "hLiMTs", "+ve (<100x Avg Cmaxu)"],
  ["CC(=O)Nc1ccc(O)cc1", "hLiMTs", "+ve (<100x Avg Cmaxu)"]
]}

* * *

Would you kindly list AC50 for each of these compounds?
Tested on: HepaRG spheroids
Test method notes: Combined HCI (HCS) and cellular ATP 3D assay in HepaRG spheroids
Experimental setup: Homo sapiens, HepaRG, read-out: ATP endpoint AC50
Answer format: number, then unit.

Kindly indicate its recorded AC50. Item: CO[C@@]12[C@H](COC(N)=O)C3=C(C(=O)C(C)=C(N)C3=O)N1C[C@@H]1N[C@@H]12 [mitomycin C]
0.4 µM

Give AC50 for the following compound: CC(=O)Oc1ccccc1C(=O)O [acetylsalicylic acid]
1630 µM

Consider the compound NC(=O)N1c2ccccc2C=Cc2ccccc21 [carbamazepine, reference compound] . State its measured AC50.
159 µM

Please supply the value of reported AC50 for the item CN1CCN(C2=Nc3cc(Cl)ccc3Nc3ccccc32)CC1 [clozapine]
16.6 µM

Supply recorded AC50 for O=C1CN(/N=C/c2ccc([N+](=O)[O-])o2)C(=O)N1 [nitrofurantoin, reference compound] here.
11.6 µM

Return AC50 for the following compound: O=P1(N(CCCl)CCCl)NCCCO1 (stereo not shown) [cyclophosphamide, reference compound]
419 µM

// Input: CC[C@H]1OC(=O)[C@H](C)[C@@H](O[C@H]2C[C@@](C)(OC)[C@@H](O)[C@H](C)O2)[C@H](C)[C@@H](O[C@@H]2O[C@H](C)C[C@H](N(C)C)[C@H]2O)[C@](C)(O)C[C@@H](C)C(=O)[C@H](C)[C@@H](O)[C@]1(C)O [erythromycin] . Output its AC50 only.
214 µM

Specify measured AC50 for CN(C)CCCN1c2ccccc2Sc2ccc(Cl)cc21 [chlorpromazine, reference compound] .
6.33 µM

Please list AC50 recorded for the compound Cn1cnc([N+](=O)[O-])c1Sc1ncnc2nc[nH]c12 [azathioprine]
0.48 µM

Provide AC50 value for the following compound: O=c1[nH]c(=O)n([C@@H]2O[C@H](CO)[C@@H](O)[C@@H]2F)cc1I [fialuridine]
9.16 µM

* * *

System: hLiMTs
Test method notes: Combined HCI (HCS) and cellular ATP 3D assay in hLiMTs
Experimental setup: hLiMTs; all endpoints; Cmax min used
Endpoint name: hLiMTs Cmax min All

Known hLiMTs Cmax min All results, listed for orientation:
{"columns": ["Compound", "hLiMTs Cmax min All"],
 "data": [
  ["Cn1cnc([N+](=O)[O-])c1Sc1ncnc2nc[nH]c12 [azathioprine]", "+ve"],
  ["CC(=O)Nc1ccc(O)cc1 [acetaminophen]", "+ve"],
  ["CCOC(=O)CN[C@@H](C(=O)N1CC[C@H]1C(=O)NCc1ccc(/C(N)=N\\O)cc1)C1CCCCC1 [ximelagatran]", "-ve"],
  ["Nc1cc(N2CCCCC2)nc(N)[n+]1[O-] [minoxidil]", "-ve"],
  ["CC/C(=C(\\c1ccccc1)c1ccc(OCCN(C)C)cc1)c1ccccc1 [tamoxifen]", "+ve"]
]}

Name the value of hLiMTs Cmax min All reported for CC(C)C(=O)Nc1ccc([N+](=O)[O-])c(C(F)(F)F)c1 [flutamide, reference compound] when tested on hLiMTs.
+ve

Find the measured hLiMTs Cmax min All of CCN(CC)CCNC(=O)c1c(C)[nH]c(/C=C2\C(=O)Nc3ccc(F)cc32)c1C [sunitinib] with hLiMTs as test system.
+ve

Find hLiMTs Cmax min All for CN(Cc1cnc2nc(N)nc(N)c2n1)c1ccc(C(=O)N[C@@H](CCC(=O)O)C(=O)O)cc1 [methotrexate, reference compound] on hLiMTs and write it down.
-ve

* * *

System: hLiMTs
Test method notes: Combined HCI (HCS) and cellular ATP 3D assay in hLiMTs
Experimental setup: hLiMTs; all endpoints; Cmax max used
Endpoint name: hLiMTs Cmax max All

{"columns": ["Molecule", "Endpoint name", "Measurement"],
 "data": [
  ["C[N+](C)(C)CC(=O)O [betaine, reference compound]", "hLiMTs Cmax max All", "-ve"],
  ["CNC1(C)C2CCC(C2)C1(C)C (stereo not drawn) [mecamylamine]", "hLiMTs Cmax max All", "-ve"],
  ["Nc1cc(N2CCCCC2)nc(N)[n+]1[O-] [minoxidil]", "hLiMTs Cmax max All", "-ve"],
  ["CCOC(=O)CN[C@@H](C(=O)N1CC[C@H]1C(=O)NCc1ccc(/C(N)=N\\O)cc1)C1CCCCC1 [ximelagatran]", "hLiMTs Cmax max All", "-ve"]
]}

Entry CN(C)C(=O)Oc1cccc([N+](C)(C)C)c1 [neostigmine] needs its hLiMTs Cmax max All filled in; supply it.
-ve

* * *

Tested on: HepaRG spheroids
Test method notes: Combined HCI (HCS) and cellular ATP 3D assay in HepaRG spheroids
Experimental setup: HepaRG; ATP endpoint; cut-off <25x Avg Cmax
Endpoint name: HepaRG <25x Avg Cmax ATP

Reference set, count: 8
{"columns": ["Compound", "HepaRG <25x Avg Cmax ATP"],
 "data": [
  ["CN(C)C(=O)Oc1cccc([N+](C)(C)C)c1", "-ve"],
  ["O=C1CN(/N=C/c2ccc(-c3ccc([N+](=O)[O-])cc3)o2)C(O)=N1", "+ve"],
  ["CC(=O)N1CCN(c2ccc(OCC3COC(Cn4ccnc4)(c4ccc(Cl)cc4Cl)O3)cc2)CC1 (stereo not drawn) [ketoconazole, reference compound]", "+ve"],
  ["O=C1CN(/N=C/c2ccc([N+](=O)[O-])o2)C(=O)N1 [nitrofurantoin, reference compound]", "+ve"],
  ["O=C(O)Cc1ccccc1Nc1c(Cl)cccc1Cl", "+ve"],
  ["CC(=O)Nc1ccc(O)cc1", "+ve"],
  ["Cc1cc2c(cc1CC(=O)c1sccc1S(=O)(=O)Nc1onc(C)c1Cl)OCO2", "-ve"],
  ["NNC(=O)c1ccncc1 [isoniazid, reference compound]", "+ve"]
]}

Tell me HepaRG <25x Avg Cmax ATP reported for [H]/N=C(/N)N[C@H]1[C@H](O)[C@@H](O)[C@H](O[C@@H]2O[C@@H](C)[C@](O)(C=O)[C@H]2O[C@@H]2O[C@@H](CO)[C@H](O)[C@@H](O)[C@@H]2NC)[C@@H](N/C(N)=N\[H])[C@@H]1O [streptomycin, reference compound]
-ve

Supply reported HepaRG <25x Avg Cmax ATP belonging to this compound: CCCC(CCC)C(=O)O
+ve

Note HepaRG <25x Avg Cmax ATP for the compound shown: CNC1(C)C2CCC(C2)C1(C)C (stereo not drawn)
-ve

Read off the recorded HepaRG <25x Avg Cmax ATP for CN(Cc1cnc2nc(N)nc(N)c2n1)c1ccc(C(=O)N[C@@H](CCC(=O)O)C(=O)O)cc1 [methotrexate, reference compound]
+ve

Determine its reported HepaRG <25x Avg Cmax ATP: CC/C(=C(\c1ccccc1)c1ccc(OCCN(C)C)cc1)c1ccccc1
-ve

Answer with the recorded HepaRG <25x Avg Cmax ATP for the compound listed here: COc1ccccc1Oc1c(NS(=O)(=O)c2ccc(C(C)(C)C)cc2)nc(-c2ncccn2)nc1OCCO
+ve

Give HepaRG <25x Avg Cmax ATP for Cn1cnc([N+](=O)[O-])c1Sc1ncnc2nc[nH]c12
+ve
